assay: Stability of estrogen quinones at various pH (remaining quinone by HPLC); type: physicochemical; settings: distilled h2o, pH 7
property.label: half-life (h)
// return numeric value only (unit: h, not printed)

Ask | Tell me the measured half-life of C[C@]12CC[C@@H]3C4=C(CC[C@H]3[C@@H]1CCC2=O)C(=O)C(=O)C=C4 [E1-3,4-Q] , please.
Reply | 1.83

====

assay: Stability of estrogen quinones at various pH (remaining quinone by HPLC); format: physicochemical; conditions: trizma, pH 5
property.label: half-life (h)
// return numeric value only (unit: h, not printed)

Ask | Tell me the measured half-life of C[C@]12CC[C@@H]3C4=C(CC[C@H]3[C@@H]1CCC2=O)C(=O)C(=O)C=C4 [E1-3,4-Q] , please.
Reply | 3.17
